# Study System: T1, human α9 integrin (human, UniProt Q13797 30-1035)
# T1 sequence: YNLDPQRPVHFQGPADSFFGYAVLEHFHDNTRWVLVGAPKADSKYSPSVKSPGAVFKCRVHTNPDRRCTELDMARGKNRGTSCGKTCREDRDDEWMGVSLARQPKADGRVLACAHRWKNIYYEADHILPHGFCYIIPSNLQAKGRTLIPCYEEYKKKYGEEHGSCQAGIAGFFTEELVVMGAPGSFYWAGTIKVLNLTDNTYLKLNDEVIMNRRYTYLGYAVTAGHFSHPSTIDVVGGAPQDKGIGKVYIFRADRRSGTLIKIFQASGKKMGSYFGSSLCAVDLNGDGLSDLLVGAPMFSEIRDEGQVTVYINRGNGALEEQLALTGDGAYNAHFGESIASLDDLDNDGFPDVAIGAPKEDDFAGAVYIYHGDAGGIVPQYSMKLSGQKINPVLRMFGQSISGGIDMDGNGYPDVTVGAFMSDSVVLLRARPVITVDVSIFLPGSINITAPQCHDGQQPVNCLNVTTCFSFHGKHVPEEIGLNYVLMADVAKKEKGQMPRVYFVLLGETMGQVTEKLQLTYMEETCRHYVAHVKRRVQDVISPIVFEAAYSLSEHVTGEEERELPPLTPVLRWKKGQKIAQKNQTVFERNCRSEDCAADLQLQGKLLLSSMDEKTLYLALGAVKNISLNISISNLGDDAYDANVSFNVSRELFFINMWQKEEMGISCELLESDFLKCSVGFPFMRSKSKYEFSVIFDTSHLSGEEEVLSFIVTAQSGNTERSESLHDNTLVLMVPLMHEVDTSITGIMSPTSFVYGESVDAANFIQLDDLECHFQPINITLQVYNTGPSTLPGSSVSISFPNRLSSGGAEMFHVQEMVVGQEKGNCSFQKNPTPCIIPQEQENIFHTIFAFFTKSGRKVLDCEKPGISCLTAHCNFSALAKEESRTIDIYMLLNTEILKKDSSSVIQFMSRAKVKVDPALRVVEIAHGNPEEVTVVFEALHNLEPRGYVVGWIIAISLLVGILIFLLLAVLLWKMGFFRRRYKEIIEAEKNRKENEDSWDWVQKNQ
# Assay Overview: cell-based or functional assay
Metric: IC50 of inhibition of α9-dependent cell adhesion

Summary for this binder, MA9-418 scFv-Fc (Fc fusion, not shown: a dimerising Fc or GST) scFv: EVQLVESGGGVVRPGGSLRLSCAASGFAFGDYGMSWVRQAPGKGLEWVSGINWNGGSTGYADSVKGRFTTSRDNAKNSLYLQMNSLRAEDTALYYCARDENYDILTGAYYYGMDVWGQGTTVTVSSGGGGSGGGGSGGGGSQSVVTQPPSVSAAPGQKVTISCSGSSSNIGNNYVSWYQQLPGTAPKLLIYDNNKRPSGIPDRFSASKSGTSATLGITGLQTGDEADYYCGTWDSSLTVWAFGGGTKLTVLG : IC50 of inhibition of α9-dependent cell adhesion is > 10 µg/mL

Data origin, for the record: patent US20110014213A1
